target desc: biotinylated labeled human GPC3 protein (produced in-house) (human, UniProt P51654 25-559, limits assumed, biotinylated (Dojindo, Cat. No. LK03); sites not stated)
assay overview: ELISA, biotinylated human GPC3 protein
parameter measured: OD450 at 0.53 nM (OD450)
Quick note: give the figure in OD450, leave out the unit.

>>> measured_result("hAb005LH3L1a (antibody, human IgG1, V domains shown, Humanized F3.54.12; VH H3 + VL L1a; expressed as human IgG1) VH: EVQLVQSGAEVKKPGASVKVSCKASGYTFTDYEMHWVRQAPGQGLEWIGAIDPETGNTAYIQKFKGRATLTTDKSTSTAYMELRSLRSDDTAVYYCTRFYSYSHWGQGTTVTVSS VL: DIVMTQTPLSLPVTPGEPASISCRSSQSLVHSDGNTYLHWYLQKPGQSPQLLIYKVSNRFSGVPDRFSGSGSGTDFTLKISRVEAEDVGVYYCSQNTHVPPTFGGGTKVEIK")
0.058

Please find the next binder below.
Task item: Which measured OD450 at 0.53 nM value corresponds to hAb003LH2L1 (antibody, human IgG1, V domains shown, Humanized F2.154.1; VH H2 + VL L1; expressed as human IgG1) VH: EVQLVQSGAEVKKPGSSVKVSCKASGYRFTDYEMHWVRQAPGQGLEWMGTIDPETGNTAYTQKFMDRVTITADKSTSTAYMELSSLRSEDTAVYYCTRGYSFTYWGQGTLVTVSS VL: DIVMTQTPLSLPVTPGEPASISCRSSQNIVHSNGNTYLQWYLQKPGQSPQLLIFKVSNRFSGVPDRFSGSGSGTDFTLKISRVEAEDVGVYYCFQGSHVPFTFGQGTKLEIK ?
Reply: 2.43
